Just for reference, ChEMBL document CHEMBL4014311 is where these values come from.

# Assay info: Cytotoxicity against human HepG2 cells
# Type: cell-based
Measured metric: CC50

1) CNC(=O)c1c(-c2ccc(F)cc2)oc2ccc(-c3cc(C(=O)NC4(c5ncccn5)CC4)ccc3C)c(F)c12 | > 12.5 µM

* * *

Collected Papp values appear next to each entry.
# Assay info: Membrane permeability at pH 7.4 by PAMPA
# Type: physicochemical
# Condition label: read-out: permeability
Measured metric: Papp (×10⁻⁶ cm/s)

1) CNC(=O)c1c(-c2ccc(F)cc2)oc2ccc(-c3cc(C(=O)NC4(c5ncccn5)CC4)ccc3C)cc12 | 76.9
2) CNC(=O)c1c(-c2ccc(F)cc2)oc2ccc(-c3cc(C(=O)NC4(c5ncccn5)CC4)ccc3C)c(F)c12 [BMS-929075] | 97.2
3) CNC(=O)c1c(-c2ccc(F)cc2)oc2ccc(-c3cc(C(=O)NC4(c5ccccn5)CC4)ccc3C)cc12 | 99.9
